The measured values listed here are drawn from patent EP0726257A1.

- Test system: spontaneous motor activity of mice
- ASSAY_SUMMARY: Inhibition of spontaneous motor activity according to Borsy et al.
- Format: in vivo
- CONDITION_NOTES: Mus musculus, po, read-out: Spontaneous motor activity SMA ED50
Recorded ED50 for the following compounds
Just the number in mg/kg, nothing appended.

Some solved cases for reference:
>>> df
                                   compound  assay_result
0  CNC1=Nc2ccc(Cl)cc2C(c2ccccc2)=[N+]([O-])C1 [chlorodiazepoxide, reference compound]            56
1  CN(C)CCCN1c2ccccc2Sc2ccc(Cl)cc21 [chlorpromazine, reference compound]             2
2  COc1cc2c(cc1OC)C(c1cccc(Cl)c1)=NN=C(C)C2 [girisopam, reference compound]            10

Now consider the entry below.
Task item: Could you share which ED50 value was measured for COc1cc2c(cc1OC)C(c1ccc(N)cc1)=NN=C(C)C2 [nerisopam, reference compound] ?
Reply: 2.5

---

Catalepsy in mice Minimal effective dose [MED] overview
- System: Catalepsy in mice
- ASSAY_SUMMARY: Cataleptic effect in mice (Schlichtegroll)
- Type: in vivo
- CONDITION_NOTES: p.o.

Recorded Catalepsy in mice Minimal effective dose [MED], per entry:
>>> print(df.to_string())
                                   compound  assay_result
0    COc1cc2c(cc1OC)C(C=Cc1cccs1)=NN=C(C)C2    >100 mg/kg
1  COc1cc2c(cc1OC)C(C=Cc1ccc(N(C)C)cc1)=NN=C(C)C2    >100 mg/kg
2  COc1cc2c(cc1OC)C(C=Cc1ccc(C#N)cc1)=NN=C(C)C2    >100 mg/kg

Task item: Data request, read-out Catalepsy in mice Minimal effective dose [MED], for `COc1cc2c(cc1OC)C(C=Cc1cccc(Cl)c1)=NN=C(C)C2`
Reply: 100 mg/kg

Task item: Another compound: `COc1cc2c(cc1OC)C(C=Cc1ccccc1F)=NN=C(C)C2`
Reply: >100 mg/kg

Task item: Next entry: `COc1cc2c(cc1OC)C(C=Cc1ccc3c(c1)OCO3)=NN=C(C)C2`
Reply: >100 mg/kg

Task item: Moving on to COc1cc2c(cc1OC)C(c1ccc(N)cc1)=NN=C(C)C2 [nerisopam, reference compound]
Reply: 40 mg/kg

Task item: Further, for `COc1cc2c(cc1OC)C(C=Cc1cc(OC)c(OC)c(OC)c1)=NN=C(C)C2` ?
Reply: >100 mg/kg

Task item: // next record CN(C)CCCN1c2ccccc2Sc2ccc(Cl)cc21 [chlorpromazine, reference compound]
Reply: 10 mg/kg

Task item: What about `COc1ccc(C=CC2=NN=C(C)Cc3cc(OC)c(OC)cc32)cc1OC` ?
Reply: 100 mg/kg

Task item: Param item: `COc1cc2c(cc1OC)C(C=Cc1ccc3c(c1OC)OCO3)=NN=C(C)C2`
Reply: >100 mg/kg

---

The following compounds are shown together with reported Ki values.
- MEASURED_ON: homophthalazine binding site
- ASSAY_SUMMARY: Displacement of 3H-girisopam from the homophthalazine binding site in rat brain striatal membrane preparation
- CONDITION_NOTES: displacing 5 nM 3H-girisopam
Numeric answer only, unit nM assumed.

Solved entries (count: 5):
                                   compound  assay_result
0  CCN(CC)c1ccc(C=CC2=NN=C(C)Cc3cc(OC)c(OC)cc32)cc1            10
1  COc1cc2c(cc1OC)C(C=Cc1ccccc1F)=NN=C(C)C2             9
2  COc1cc2c(cc1OC)C(C=Cc1ccccc1C)=NN=C(C)C2            11
3  COc1cc2c(cc1OC)C(C=Cc1cc(OC)c(OC)c(OC)c1)=NN=C(C)C2            11
4  COc1cc2c(cc1OC)C(C=Cc1ccc(F)cc1)=NN=C(C)C2            12

Task item: Need Ki of `COc1cc2c(cc1OC)C(C=Cc1ccccc1OC(C)C)=NN=C(C)C2` , thanks.
Reply: 18

Task item: Request: `COc1ccc(C=CC2=NN=C(C)Cc3cc(OC)c(OC)cc32)cc1`
Reply: 18

Task item: Another compound: `COc1cc2c(cc1OC)C(C=Cc1ccccc1Br)=NN=C(C)C2`
Reply: 10

Task item: What do you have for `COc1cc2c(cc1OC)C(C=Cc1ccc(OC(C)C)cc1)=NN=C(C)C2` ?
Reply: 13

Task item: And the next one, `CCCc1cc(C=CC2=NN=C(C)Cc3cc(OC)c(OC)cc32)ccc1OC` ?
Reply: 16

Task item: Similarly, `COc1ccc(C=CC2=NN=C(C)Cc3cc(OC)c(OC)cc32)c(OC)c1` ?
Reply: 18

Task item: Next up: `COc1cc(OC)c(OC)cc1C=CC1=NN=C(C)Cc2cc(OC)c(OC)cc21`
Reply: 16

Task item: What do you have for COc1cc2c(cc1OC)C(c1cccc(Cl)c1)=NN=C(C)C2 [girisopam, reference compound] ?
Reply: 40

Task item: Likewise for CCC1C(C)=NN=C(C=Cc2cccc(Cl)c2)c2cc(OC)c(OC)cc21 (centres unmarked) ?
Reply: 19

Task item: Please answer likewise for `COc1cc(OC)c(C=CC2=NN=C(C)Cc3cc(OC)c(OC)cc32)c(OC)c1`
Reply: 19

---

- MEASURED_ON: homophthalazine binding site
- ASSAY_SUMMARY: Displacement of 3H-girisopam from the homophthalazine binding site in rat brain striatal membrane preparation
- CONDITION_NOTES: displacing 5 nM 3H-girisopam
pKi by entry:
When answering, recall that pKi equals minus log10 of the concentration in mol/L, and write that number alone.

Before answering, review these 4 worked examples.
>>> df
                                   compound                   measured_on  assay_result
0  COc1cc2c(cc1OC)C(C=Cc1ccc(C(F)(F)F)cc1)=NN=C(C)C2  homophthalazine binding site          7.82
1  COc1ccc(C=CC2=NN=C(C)Cc3cc(OC)c(OC)cc32)cc1Cl  homophthalazine binding site          7.96
2   COc1cc2c(cc1OC)C(C=Cc1ccccc1)=NN=C(C)C2  homophthalazine binding site          7.92
3  COc1cc2c(cc1OC)C(C=Cc1cccc(N)c1)=NN=C(C)C2  homophthalazine binding site          7.85

Now turn to the next compound.
Task item: Data request, read-out pKi, for `COc1ccc(C=CC2=NN=C(C)Cc3cc(OC)c(OC)cc32)cc1C`
Reply: 7.80

---

- Test system: rats
- ASSAY_SUMMARY: Elevated plus-maze test (Pellow), anxiolytic activity
- Assay type: in vivo
- CONDITION_NOTES: Rattus norvegicus, po, 1 h; p.o., elevated plus maze, Sprague Dawley rats, 60 minutes pretreatment, significant increase of time spent on open arms; read-out: Minimum effective dose
QUANTITY_NAME: minimal effective dose (mg/kg)
The figure you give is taken to be in mg/kg; do not add the unit.

Here is how some molecules turned out for minimal effective dose.
In [3]: df
Out[3]:
                                   molecule           quantity_name  assay_result
0  CC1Cc2cc3c(cc2C(C=Cc2ccc(F)cc2)=NN1)OCO3 (centres unmarked) [Example 92]  minimal effective dose             1
1  CC1=NN=C(C=Cc2cccc(F)c2)c2cc3c(cc2C1)OCO3 [Example 89]  minimal effective dose           0.3
2  CC1=NN=C(C=Cc2ccccc2F)c2cc3c(cc2C1)OCO3 [Example 90]  minimal effective dose           0.3
3  CC1=NN=C(C=Cc2ccc(F)cc2)c2cc3c(cc2C1)OCO3 [Example 86]  minimal effective dose         0.003

Continue with the next molecule.
Task item: Reported minimal effective dose for rats, given CC1=NN=C(C=Cc2ccc(C(F)(F)F)cc2)c2cc3c(cc2C1)OCO3 [Example 87] ?
Reply: 0.1

---

- ASSAY_SUMMARY: Cataleptic effect in mice (Schlichtegroll)
- Format: in vivo
- CONDITION_NOTES: mouse, in vivo, Tables III and IV compared, read-out: dose causing catalepsy on mice relative to the spontaneous motor activity (SMA) decreasing ED50 dose
QUANTITY_NAME: selectivity ratio
No unit in the answer, please; the number alone is enough.

Task item: # get_value(readout='selectivity ratio', item= CN(C)CCCN1c2ccccc2Sc2ccc(Cl)cc21 [chlorpromazine, reference compound] )
Reply: 5

---

- Test system: mice
- ASSAY_SUMMARY: Acute toxicity (dead/treated animals) in the Irwin test
- Type: in vivo
- CONDITION_NOTES: 300 mg/kg i.p.
Each entry below lists one item and its recorded acute toxicity (dead/treated animals) value.

In the examples that follow, each entry is paired with its recorded acute toxicity (dead/treated animals).
                                   molecule  measured_on  assay_result
0  COc1cc2c(cc1OC)C(C=Cc1ccc(NC(C)=O)cc1)=NN=C(C)C2         mice           0/5
1  COc1cc2c(cc1OC)C(C=Cc1cc(OC)c(OC)c(OC)c1)=NN=C(C)C2         mice           0/6
2  COc1cc2c(cc1OC)C(C=Cc1ccccc1C)=NN=C(C)C2         mice           0/5
3  COc1cc2c(cc1OC)C(C=Cc1ccc(Cl)c(N)c1)=NN=C(C)C2         mice           0/5
4  CCC1C(C)=NN=C(C=Cc2ccc(OC)c(OC)c2)c2cc(OC)c(OC)cc21 (stereo not drawn)         mice           0/5

Below: the item to evaluate.
Task item: # returns recorded acute toxicity (dead/treated animals) (system: mice) for CCC1C(C)=NN=C(C=Cc2cccc(Cl)c2)c2cc(OC)c(OC)cc21 (stereo not drawn)
Reply: 0/5
